Task for the reader: assign each of the following compounds its reported inhibition.
study target: UniProtKB P31652
Sequence (P31652 whole entry): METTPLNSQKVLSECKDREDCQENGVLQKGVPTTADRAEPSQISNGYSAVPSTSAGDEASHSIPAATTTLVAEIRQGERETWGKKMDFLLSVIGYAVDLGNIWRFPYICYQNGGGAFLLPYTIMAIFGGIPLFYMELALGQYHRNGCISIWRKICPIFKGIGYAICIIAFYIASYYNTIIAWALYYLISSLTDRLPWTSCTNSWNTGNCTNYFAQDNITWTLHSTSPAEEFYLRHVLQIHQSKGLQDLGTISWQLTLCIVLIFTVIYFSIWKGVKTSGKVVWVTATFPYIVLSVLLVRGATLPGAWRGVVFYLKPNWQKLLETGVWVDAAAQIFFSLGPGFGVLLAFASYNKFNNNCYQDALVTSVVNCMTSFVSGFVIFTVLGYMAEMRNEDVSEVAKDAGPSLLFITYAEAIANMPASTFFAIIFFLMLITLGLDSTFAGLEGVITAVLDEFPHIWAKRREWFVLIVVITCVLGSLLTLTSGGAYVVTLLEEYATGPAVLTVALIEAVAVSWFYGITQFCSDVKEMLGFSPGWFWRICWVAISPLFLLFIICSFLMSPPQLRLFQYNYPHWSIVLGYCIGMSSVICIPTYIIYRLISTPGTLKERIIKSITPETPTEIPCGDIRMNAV
procedure text: Inhibition of rat synaptosomes 5HT transporter assessed as reduction in [3H]serotonin reuptake at 1 uM incubated for 15 mins by scintillation counting method relative to control
Type: subcellular
One number for each entry, in %.

Cc1ccc(-c2cc(F)ccc2OCCN2CCC(c3c[nH]c4ccc(F)cc34)CC2)cc1	38.9
Fc1ccc2[nH]cc(C3CCN(CCOc4ccc(F)c(-c5ccccc5)c4)CC3)c2c1	66.6
Fc1ccc(OCCN2CCC(c3c[nH]c4ccc(F)cc34)CC2)c(-c2ccccc2F)c1	97.1

The following compounds each have a reported value; give each one's inhibition.
1. Fc1ccc(OCCN2CCC(Cc3c[nH]c4ccc(F)cc34)CC2)c(-c2ccccc2)c1
2. N#Cc1ccc(-c2cc(F)ccc2OCCN2CCC(c3c[nH]c4ccc(F)cc34)CC2)cc1
3. Fc1ccc(OCCN2CCC(c3c[nH]c4ccc(F)cc34)CC2)c(-c2ccccc2)c1

[101, 63, 96.3]
